Give MNTC at 72 h for every item shown.
assay-protocol: Inhibition of population growth (cytotoxicity), S180 sarcoma, parental
Format: cell-based, mouse
details: mouse, s180 cells; S180; Table III; read-out: Modulator concentration (nontoxic concentration limit of the analog)
All answers are understood in µM, so give the number only.

Sample CC[C@]12C=CCN3CC[C@@]4(c5cc([C@]6(C(=O)OC)C[C@@H]7CCCN(CCc8c6[nH]c6ccccc86)C7)c(OC)cc5N(C)[C@H]4[C@@](O)(C(=O)OC)[C@@H]1OC(C)=O)[C@@H]32 [analog n° 331] ; MNTC at 72 h observed: 50

Sample CC[C@]12C=CCN3CC[C@@]4(c5cc([C@@]6(C(=O)OC)C[C@H]7CCCN(CCc8c6[nH]c6ccccc86)C7)c(OC)cc5N(C)[C@H]4[C@@](O)(C(=O)OC)[C@@H]1OC(C)=O)[C@@H]32 [analog n° 330] ; MNTC at 72 h observed: 20

Sample CCC1CC2CN(CCc3c([nH]c4ccccc34)C(C(=O)OC)(c3cc4c(cc3OC)N(C)C3C(O)(C(=O)OC)C(OC(C)=O)C5(CC)C=CCN6CCC43C65)C2)C1 (stereo not drawn) [analog n° 353, C-14'-epi-C-20'-deoxy-VBL] ; MNTC at 72 h observed: 40

Sample CC[C@H]1C[C@@H]2CN(CCc3c([nH]c4ccccc34)[C@](C(=O)OC)(c3cc4c(cc3OC)N(C)[C@H]3[C@@](O)(C(=O)OC)[C@H](OC(C)=O)[C@]5(CC)C=CCN6CC[C@]43[C@@H]65)C2)C1 [analog n° 354, C-20'-deoxy-C-16', 20' epi VBL] ; MNTC at 72 h observed: 20

---

assay-protocol: Inhibition of population growth of rat colon cancer cell lines RCC-2 and RCC-5
Format: cell-based
details: rat, rcc-2 and rcc-5 cells; read-out: non-toxic concentration limit
readout-name: MNTC at 72 h

Sample CC[C@H]1C[C@H]2CN(CCc3c([nH]c4ccccc34)[C@](C(=O)OC)(c3cc4c(cc3OC)N(C)[C@H]3[C@@](O)(C(=O)OC)[C@H](OC(C)=O)[C@]5(CC)C=CCN6CC[C@]43[C@@H]65)C2)C1 [C-20'-deoxy vincovaline, C-20'-deoxy C-14', 16', 20'-epi-VBL] ; MNTC at 72 h observed: 1000 to 2000 nM

---

assay-protocol: Viability (MTT test) of P388 S cells
Format: cell-based
details: mouse; sensitive cells P388 S, 24 h and 48 h; read-out: concentrations up to which no cytotoxicity is seen
readout-name: MNTC

Sample "CC[C@]12C=CCN3CC[C@@]4(c5cc([C@]6(C(=O)OC)C[C@H]7CCCN(CCc8c6[nH]c6ccccc86)C7)c(OC)cc5N(C)[C@H]4[C@@](O)(C(=O)OC)[C@@H]1OC(C)=O)[C@@H]32" ; MNTC observed: ≥ 25 µM

---

Tested on: S180 cells, parental
assay-protocol: Modulation of intrinsic drug resistance, parental S180
Format: cell-based, murine
details: S180; IC50 drug alone / IC50 drug + modulator, at nontoxic concentration limit
Give Maximum sensitization of parental cells by modulator, drug ADM for every item shown.
Please respond with just the number, no unit label.

Sample CCC1CC2CN(CCc3c([nH]c4ccccc34)C(C(=O)OC)(c3cc4c(cc3OC)N(C)C3C(O)(C(=O)OC)C(OC(C)=O)C5(CC)C=CCN6CCC43C65)C2)C1 (stereo not drawn) [analog n° 353, C-14'-epi-C-20'-deoxy-VBL] ; Maximum sensitization of parental cells by modulator, drug ADM observed: 4.0

Sample "CC[C@]12C=CCN3CC[C@@]4(c5cc([C@@]6(C(=O)OC)C[C@H]7CCCN(CCc8c6[nH]c6ccccc86)C7)c(OC)cc5N(C)[C@H]4[C@@](O)(C(=O)OC)[C@@H]1OC(C)=O)[C@@H]32" ; Maximum sensitization of parental cells by modulator, drug ADM observed: 4.2

Sample "CC[C@]12C=CCN3CC[C@@]4(c5cc([C@]6(C(=O)OC)C[C@@H]7CCCN(CCc8c6[nH]c6ccccc86)C7)c(OC)cc5N(C)[C@H]4[C@@](O)(C(=O)OC)[C@@H]1OC(C)=O)[C@@H]32" ; Maximum sensitization of parental cells by modulator, drug ADM observed: 3.4

Sample CC[C@H]1C[C@@H]2CN(CCc3c([nH]c4ccccc34)[C@](C(=O)OC)(c3cc4c(cc3OC)N(C)[C@H]3[C@@](O)(C(=O)OC)[C@H](OC(C)=O)[C@]5(CC)C=CCN6CC[C@]43[C@@H]65)C2)C1 [analog n° 354, C-20'-deoxy-C-16', 20' epi VBL] ; Maximum sensitization of parental cells by modulator, drug ADM observed: 5.0

---

assay-protocol: Clonogenic assay for cytotoxicity, MDR variant KB-V1
Format: cell-based, human
details: human, kb-v1 cells; read-out: non-toxic concentration limit
readout-name: MNTC
Numeric answer plus unit only.

Sample "CC[C@]12C=CCN3CC[C@@]4(c5cc([C@]6(C(=O)OC)C[C@H]7CCCN(CCc8c6[nH]c6ccccc86)C7)c(OC)cc5N(C)[C@H]4[C@@](O)(C(=O)OC)[C@@H]1OC(C)=O)[C@@H]32" ; MNTC observed: 20 µM

---

Test system: RCC-2 cells
assay-protocol: Modulation of intrinsic drug resistance, RCC-2
Type: cell-based, rat
details: IC50 drug alone / IC50 drug + modulator, at nontoxic concentration limit
Give Maximum sensitization of parental cells by modulator, drug VCR for every item shown.
Please respond with just the number, no unit label.

Sample "CC[C@]12C=CCN3CC[C@@]4(c5cc([C@@]6(C(=O)OC)C[C@H]7CCCN(CCc8c6[nH]c6ccccc86)C7)c(OC)cc5N(C)[C@H]4[C@@](O)(C(=O)OC)[C@@H]1OC(C)=O)[C@@H]32" ; Maximum sensitization of parental cells by modulator, drug VCR observed: 2.0

Sample CCC1CC2CN(CCc3c([nH]c4ccccc34)C(C(=O)OC)(c3cc4c(cc3OC)N(C)C3C(O)(C(=O)OC)C(OC(C)=O)C5(CC)C=CCN6CCC43C65)C2)C1 (stereo not drawn) [analog n° 353, C-14'-epi-C-20'-deoxy-VBL] ; Maximum sensitization of parental cells by modulator, drug VCR observed: 7.3

Sample CC[C@H]1C[C@@H]2CN(CCc3c([nH]c4ccccc34)[C@](C(=O)OC)(c3cc4c(cc3OC)N(C)[C@H]3[C@@](O)(C(=O)OC)[C@H](OC(C)=O)[C@]5(CC)C=CCN6CC[C@]43[C@@H]65)C2)C1 [analog n° 354, C-20'-deoxy-C-16', 20' epi VBL] ; Maximum sensitization of parental cells by modulator, drug VCR observed: 4.0

Sample "CC[C@]12C=CCN3CC[C@@]4(c5cc([C@]6(C(=O)OC)C[C@@H]7CCCN(CCc8c6[nH]c6ccccc86)C7)c(OC)cc5N(C)[C@H]4[C@@](O)(C(=O)OC)[C@@H]1OC(C)=O)[C@@H]32" ; Maximum sensitization of parental cells by modulator, drug VCR observed: 2.0

---

assay-protocol: Inhibition of population growth (cytotoxicity), rat colon adenocarcinoma RCC-5
Type: cell-based
details: rat, rcc-5 cells; RCC-5; Table III; read-out: Modulator concentration (nontoxic concentration limit of the analog)
readout-name: MNTC at 72 h (µM)
All answers are understood in µM, so give the number only.

Sample "CC[C@]12C=CCN3CC[C@@]4(c5cc([C@]6(C(=O)OC)C[C@@H]7CCCN(CCc8c6[nH]c6ccccc86)C7)c(OC)cc5N(C)[C@H]4[C@@](O)(C(=O)OC)[C@@H]1OC(C)=O)[C@@H]32" ; MNTC at 72 h observed: 20

Sample CCC1CC2CN(CCc3c([nH]c4ccccc34)C(C(=O)OC)(c3cc4c(cc3OC)N(C)C3C(O)(C(=O)OC)C(OC(C)=O)C5(CC)C=CCN6CCC43C65)C2)C1 (stereo not drawn) [analog n° 353, C-14'-epi-C-20'-deoxy-VBL] ; MNTC at 72 h observed: 10

Sample "CC[C@]12C=CCN3CC[C@@]4(c5cc([C@@]6(C(=O)OC)C[C@H]7CCCN(CCc8c6[nH]c6ccccc86)C7)c(OC)cc5N(C)[C@H]4[C@@](O)(C(=O)OC)[C@@H]1OC(C)=O)[C@@H]32" ; MNTC at 72 h observed: 10

Sample CC[C@H]1C[C@@H]2CN(CCc3c([nH]c4ccccc34)[C@](C(=O)OC)(c3cc4c(cc3OC)N(C)[C@H]3[C@@](O)(C(=O)OC)[C@H](OC(C)=O)[C@]5(CC)C=CCN6CC[C@]43[C@@H]65)C2)C1 [analog n° 354, C-20'-deoxy-C-16', 20' epi VBL] ; MNTC at 72 h observed: 5

---

assay-protocol: Inhibition of population growth (cytotoxicity), rat colon adenocarcinoma RCC-2
Assay type: cell-based
details: rat, rcc-2 cells; RCC-2; Table III; read-out: Modulator concentration (nontoxic concentration limit of the analog)
readout-name: MNTC at 72 h (µM)
All answers are understood in µM, so give the number only.

Sample CCC1CC2CN(CCc3c([nH]c4ccccc34)C(C(=O)OC)(c3cc4c(cc3OC)N(C)C3C(O)(C(=O)OC)C(OC(C)=O)C5(CC)C=CCN6CCC43C65)C2)C1 (stereo not drawn) [analog n° 353, C-14'-epi-C-20'-deoxy-VBL] ; MNTC at 72 h observed: 10

Sample CC[C@H]1C[C@@H]2CN(CCc3c([nH]c4ccccc34)[C@](C(=O)OC)(c3cc4c(cc3OC)N(C)[C@H]3[C@@](O)(C(=O)OC)[C@H](OC(C)=O)[C@]5(CC)C=CCN6CC[C@]43[C@@H]65)C2)C1 [analog n° 354, C-20'-deoxy-C-16', 20' epi VBL] ; MNTC at 72 h observed: 5

Sample CC[C@]12C=CCN3CC[C@@]4(c5cc([C@]6(C(=O)OC)C[C@@H]7CCCN(CCc8c6[nH]c6ccccc86)C7)c(OC)cc5N(C)[C@H]4[C@@](O)(C(=O)OC)[C@@H]1OC(C)=O)[C@@H]32 [analog n° 331] ; MNTC at 72 h observed: 10

Sample CC[C@]12C=CCN3CC[C@@]4(c5cc([C@@]6(C(=O)OC)C[C@H]7CCCN(CCc8c6[nH]c6ccccc86)C7)c(OC)cc5N(C)[C@H]4[C@@](O)(C(=O)OC)[C@@H]1OC(C)=O)[C@@H]32 [analog n° 330] ; MNTC at 72 h observed: 10

The measurements presented in this section are drawn from patent US5369111A.
